Here is a set of compounds with reported IC50 for Tyrosine-protein kinase JAK3 (Homo sapiens, UniProt P52333), compiled from the literature.
experimental.endpoint: IC50

[
  {
    "line.notation": "O=c1[nH]c2c(-c3ccc(Cl)cc3)nc(-n3cnc4ccc(F)cc43)nc2n1C1CCOCC1",
    "experimental.endpoint": "IC50",
    "test.value": "100 to 1000 nM"
  },
  {
    "line.notation": "CCC(=O)c1cnc(Nc2cnc(OCCn3cnc(C)c3)cn2)cc1Nc1cccc(-c2ncn(C)n2)c1OC",
    "experimental.endpoint": "IC50",
    "test.value": "≥ 500 nM"
  },
  {
    "line.notation": "CC[C@@H](CCF)n1cc(-c2nc(-c3cnn(C)c3)cc3nccn23)cn1",
    "experimental.endpoint": "IC50",
    "test.value": "100 to 1000 nM"
  },
  {
    "line.notation": "Cc1ccc(C(=O)N2CCC[C@@H](Nc3n[nH]c4nccc(Oc5ccc(C(=O)Nc6cc(C)ccn6)cc5)c34)C2)cc1",
    "experimental.endpoint": "IC50",
    "test.value": "> 10000 nM"
  },
  {
    "line.notation": "C=CC(=O)Nc1cccc(Oc2nc(Nc3ccc(NC4CCN(C)CC4)c(F)c3)nc3ccsc23)c1",
    "experimental.endpoint": "IC50",
    "test.value": "≤ 50 nM"
  },
  {
    "line.notation": "Cc1nnc(-c2cnc3[nH]ccc3c2N[C@H]2C[C@@H](NS(=O)(=O)c3cc(C#N)ccn3)C2)o1",
    "experimental.endpoint": "IC50",
    "test.value": "> 1000 nM"
  },
  {
    "line.notation": "Cc1cnc(-c2cnc3[nH]ccc3c2N[C@H]2C[C@@H](NS(=O)(=O)c3cccc(C#N)c3)C2)s1",
    "experimental.endpoint": "IC50",
    "test.value": "≤ 10 nM"
  }
]

====

Before we begin, note that these IC50 values for Tyrosine-protein kinase JAK3 (Homo sapiens, UniProt P52333) originate from several publications.
experimental.endpoint: IC50

[
  {
    "compound": "Oc1ccc(F)c(C(O)c2c[nH]c3ncc(-c4cccnc4)cc23)c1F (centres unmarked)",
    "study.target": "Tyrosine-protein kinase JAK3 (Homo sapiens, UniProt P52333)",
    "test.value": "≤ 10000 nM"
  },
  {
    "compound": "CN(c1ncnc2[nH]ccc12)C1CC2(C1)CN(C(=O)CCC#N)C2",
    "study.target": "Tyrosine-protein kinase JAK3 (Homo sapiens, UniProt P52333)",
    "test.value": "1000 to 10000 nM"
  },
  {
    "compound": "C=CC(=O)Nc1cccc(Oc2nc(Nc3ccc(C(=O)NC4CCN(C(C)C)CC4)cc3)nc3ccsc23)c1",
    "study.target": "Tyrosine-protein kinase JAK3 (Homo sapiens, UniProt P52333)",
    "test.value": "≤ 50 nM"
  },
  {
    "compound": "CC(C)CNc1nc(-n2cnc3ccc(F)cc32)nc2c1[nH]c(=O)n2[C@@H]1CCOc2c(F)cccc21",
    "study.target": "Tyrosine-protein kinase JAK3 (Homo sapiens, UniProt P52333)",
    "test.value": "100 to 1000 nM"
  },
  {
    "compound": "C=CC(=O)Nc1cccc(Nc2cc(Oc3cccc(C)c3)ncn2)n1",
    "study.target": "Tyrosine-protein kinase JAK3 (Homo sapiens, UniProt P52333)",
    "test.value": "≤ 10 nM"
  },
  {
    "compound": "CN(c1ncnc2[nH]ccc12)C1CCC2(CC1)CCN(C(=O)CO)CC2",
    "study.target": "Tyrosine-protein kinase JAK3 (Homo sapiens, UniProt P52333)",
    "test.value": "100 to 1000 nM"
  },
  {
    "compound": "CCOC(=O)c1cnc2[nH]ccc2c1N(C)[C@H]1CC[C@H](OC(=O)CC#N)C1 (single isomer, unassigned)",
    "study.target": "Tyrosine-protein kinase JAK3 (Homo sapiens, UniProt P52333)",
    "test.value": "100 to 1000 nM"
  },
  {
    "compound": "C=CC(=O)N1CC[C@@H](Nc2nc(Nc3cccs3)nc3ccsc23)C1",
    "study.target": "Tyrosine-protein kinase JAK3 (Homo sapiens, UniProt P52333)",
    "test.value": "10 to 100 nM"
  },
  {
    "compound": "O=C(NCCC(F)(F)F)c1nn(-c2ccccc2)c2c1CN(c1ncnc3[nH]ccc13)CC2",
    "study.target": "Tyrosine-protein kinase JAK3 (Homo sapiens, UniProt P52333)",
    "test.value": "< 100 nM"
  },
  {
    "compound": "C=CC(=O)Nc1cccc(Oc2nc(Nc3ccc(NCCN(C)C)cc3)nc3ccsc23)c1",
    "study.target": "Tyrosine-protein kinase JAK3 (Homo sapiens, UniProt P52333)",
    "test.value": "50 to 100 nM"
  },
  {
    "compound": "NC(=O)c1cnc(Nc2ccc3c(c2)NC[C@H](OCCO)CO3)nc1NC1CC1",
    "study.target": "Tyrosine-protein kinase JAK3 (Homo sapiens, UniProt P52333)",
    "test.value": "< 10 nM"
  },
  {
    "compound": "O=c1[nH]c2cnc(-c3cnn4ccncc34)nc2n1CC1CCOCC1",
    "study.target": "Tyrosine-protein kinase JAK3 (Homo sapiens, UniProt P52333)",
    "test.value": "100 to 1000 nM"
  },
  {
    "compound": "O=C(O)Cn1cc(Nc2ncc3ccn(CC4CCCC(F)(F)C4)c3n2)cn1 (centres unmarked)",
    "study.target": "Tyrosine-protein kinase JAK3 (Homo sapiens, UniProt P52333)",
    "test.value": "< 100 nM"
  },
  {
    "compound": "CCC(CC)n1cc(-c2nc(-c3cnn(C[C@@H](O)[C@@H](C)O)c3)cn3nccc23)cn1",
    "study.target": "Tyrosine-protein kinase JAK3 (Homo sapiens, UniProt P52333)",
    "test.value": "1000 to 10000 nM"
  },
  {
    "compound": "CC(C)(C)NS(=O)(=O)c1cccc(N2CCc3cnc(Nc4ccc(CC5CCOCC5)cc4)nc32)c1",
    "study.target": "Tyrosine-protein kinase JAK3 (Homo sapiens, UniProt P52333)",
    "test.value": "987 nM"
  },
  {
    "compound": "NS(=O)(=O)CCC(=O)Nc1cccc(-c2cnc3ccccc3n2)c1",
    "study.target": "Tyrosine-protein kinase JAK3 (Homo sapiens, UniProt P52333)",
    "test.value": "> 10000 nM"
  },
  {
    "compound": "Fc1ccc2ncn(-c3ncc4nc(-c5ccc(C(F)(F)F)nc5)n(C5CCOCC5)c4n3)c2c1",
    "study.target": "Tyrosine-protein kinase JAK3 (Homo sapiens, UniProt P52333)",
    "test.value": "< 100 nM"
  }
]

====

pIC50: −log10 of the molar value.
Published pIC50 for Tyrosine-protein kinase JAK3 (Homo sapiens, UniProt P52333), assembled from different documents, is shown next.

[
  {
    "molecule": "Cc1csc(-c2cnc3[nH]ccc3c2N[C@H]2C[C@@H](NS(=O)(=O)c3cccc(C#N)c3)C2)n1",
    "pIC50": "≥ 8.00"
  },
  {
    "molecule": "CNC(=O)c1n[nH]c2cc(-c3cc(F)c(O)cc3CC(F)(F)F)nc(NCc3cccnc3N(C)S(C)(=O)=O)c12",
    "pIC50": 6.99
  },
  {
    "molecule": "CCC(=O)c1cnc(Nc2ccc(O[C@@H]3CCOC3)c(C)n2)cc1Nc1cccc(-c2ncn(C)n2)c1OC",
    "pIC50": "6.30 to 7.30"
  },
  {
    "molecule": "C=CC(=O)N1CCC[C@@H](Nc2n[nH]c3nccc(Oc4ccc(C(=O)Nc5ncc(C)s5)cc4)c23)C1",
    "pIC50": "> 7.00"
  },
  {
    "molecule": "C=CC(=O)Nc1cccc(Nc2ncc(C)c(Nc3cccc(Br)c3)n2)c1",
    "pIC50": "> 8.00"
  },
  {
    "molecule": "C[C@]1(F)CCC[C@H]1Nc1c(C(N)=O)cnn2cc(-c3cncc4ccccc34)cc12 (racemic)",
    "pIC50": 7.33
  },
  {
    "molecule": "COc1nn(C)cc1Nc1ncc(C)c(-c2c[nH]c3c(NC(=O)C(C(C)C)N4CCN(C)CC4)nccc23)n1 (stereo not drawn)",
    "pIC50": "> 6.30"
  },
  {
    "molecule": "Cc1cnc2nc1NCCCCCNC(=O)c1ccc(cc1S(C)(=O)=O)-c1cnc(F)c(c1)N2",
    "pIC50": "5.00 to 6.00"
  },
  {
    "molecule": "CC(C)n1cc(-c2nc(-c3cnn(C4CCNCC4)c3)cn3nccc23)cn1",
    "pIC50": "5.00 to 6.00"
  },
  {
    "molecule": "Cc1ncc(-c2cc3nccn3c(-c3cnn(C(CC#N)C4CC4)c3)n2)s1 (stereo not drawn)",
    "pIC50": "6.00 to 7.00"
  },
  {
    "molecule": "CCC(CC)n1cc(-c2nc(-c3cnn([C@H]4C[C@H](CO)C4)c3)cn3nccc23)cn1",
    "pIC50": "5.00 to 6.00"
  },
  {
    "molecule": "CN(C)C/C=C/C(=O)Nc1cccc(Nc2cc(Nc3ccc(Oc4ccccc4)cc3)ncn2)n1",
    "pIC50": "≥ 8.00"
  },
  {
    "molecule": "NC(=O)c1cccc(-c2ccnc3[nH]cc(C(=O)c4cc(F)ccc4F)c23)c1",
    "pIC50": "≥ 5.00"
  },
  {
    "molecule": "CN(C)C/C=C/C(=O)Nc1cccc(Nc2cc(Nc3ccc(OCc4cccc(F)c4)c(Cl)c3)ncn2)c1",
    "pIC50": "5.00 to 6.00"
  },
  {
    "molecule": "CCC(=O)c1cnc(Nc2cccc(C(=O)N(C)C)n2)cc1Nc1cccc(-c2ncn(C)n2)c1OC",
    "pIC50": "≤ 6.30"
  },
  {
    "molecule": "C=CCC(CC1CC1)n1cc(-c2nc(-c3cnn(C)c3)cc3nccn23)cn1 (stereo not drawn)",
    "pIC50": "6.00 to 7.00"
  },
  {
    "molecule": "COc1cccc(Nc2nc3cnc(-n4cnc5ccc(C#N)cc54)nc3n2C2CCOCC2)c1",
    "pIC50": "> 7.00"
  },
  {
    "molecule": "CN(C)CCCC(=O)N1CCC[C@@H](Nc2n[nH]c3nccc(Oc4ccc(C(=O)Nc5cc(C(F)(F)F)ccn5)cc4)c23)C1",
    "pIC50": "< 5.00"
  },
  {
    "molecule": "NC(=O)c1cnc(Nc2ccc3c(c2)NC[C@H](OCC(=O)O)CO3)nc1NC1CC1",
    "pIC50": "7.00 to 8.00"
  },
  {
    "molecule": "Cn1ccnc1-c1cnc2[nH]ccc2c1N[C@@H]1CCCN(C(=O)CC#N)C1",
    "pIC50": "< 6.00"
  },
  {
    "molecule": "Cc1ccc(NC(=O)c2ccc(F)c(C(F)(F)F)c2)cc1-c1ccc2c(c1)[nH]c1ncncc12",
    "pIC50": "≥ 6.30"
  },
  {
    "molecule": "N#Cc1ccc2ncn(-c3ncc4nc(-c5cncnc5)n([C@@H]5CCOc6c(F)cccc65)c4n3)c2c1",
    "pIC50": "> 7.00"
  },
  {
    "molecule": "Cc1ccc(NC(=O)c2cc(-n3cncn3)cc(C(F)(F)F)c2)cc1-c1ccc2c(c1)[nH]c1ncncc12",
    "pIC50": "≥ 6.30"
  },
  {
    "molecule": "CCC(=O)c1cnc(Nc2cnc(OCCn3ccnc3C)cn2)cc1Nc1cccc(-c2ncn(C)n2)c1OC",
    "pIC50": "≤ 6.30"
  },
  {
    "molecule": "CCC(=O)c1cnc(Nc2ccc([C@@H](C)N3C[C@@H](O)[C@H](O)C3)cn2)cc1Nc1cccc(-c2ncn(C)n2)c1OC",
    "pIC50": "6.30 to 7.30"
  },
  {
    "molecule": "OCc1cccc(-c2ccnc3[nH]cc(Sc4cccc(F)c4)c23)c1",
    "pIC50": "≥ 5.00"
  },
  {
    "molecule": "Cc1cnc(NC(=O)c2ccc(Oc3ccnc4[nH]nc(C5CCCN(C(=O)C6CCN(C)CC6)C5)c34)cc2)s1 (stereo not drawn)",
    "pIC50": "< 5.00"
  },
  {
    "molecule": "CCCOCc1cccc(Nc2nccc(-c3ccc(C(=O)NCC#N)cc3)n2)c1",
    "pIC50": "> 6.00"
  },
  {
    "molecule": "CN(c1ncnc2[nH]ccc12)[C@H]1C[C@@H](NS(=O)(=O)[C@H]2C[C@](C)(CC#N)C2)C1",
    "pIC50": "< 5.00"
  },
  {
    "molecule": "N#Cc1ccc2ncn(-c3ncc4nc(-c5cncnc5)n([C@@H]5CCOc6ccc(F)cc65)c4n3)c2c1",
    "pIC50": "> 7.00"
  }
]
